Tested on: A549 NSCLC
Experiment: NCI tumour cell line growth inhibition, 48 h; in the data active = GI50 below about 0.43 µM; inactive = the rest
Classes used: active, inactive

molecule: CC(C)(C)c1ccc(NC(=O)c2cc(=O)c3ccccc3[nH]2)c(C(C)(C)C)c1O
experimental_target: A549 NSCLC
class: inactive
--
molecule: COc1cccc2c1C(=O)c1c(O)c3c(c(O)c1C2=O)C[C@@](O)(C(=O)COC(=O)c1cccnc1)C[C@@H]3OC1CC(N)C(O)C(C)O1 (some centres undefined)
experimental_target: A549 NSCLC
class: active
--
molecule: CCC(=O)[O-].CCC(=O)[O-].N.N.N.N.[Co+3].[O-][Cl+3]([O-])([O-])[O-]
experimental_target: A549 NSCLC
class: inactive
--
molecule: COc1ccc(-c2ccc(=O)oc2-c2cc(OC)c(OC)c(OC)c2)cc1O
experimental_target: A549 NSCLC
class: active
--
molecule: CC(=O)OC1CC(C)c2c1ncnc2N1CCN(C(=O)OC(C)(C)C)CC1 (centres undefined)
experimental_target: A549 NSCLC
class: inactive
--
molecule: C=C(C)[C@@H]1CC[C@]2(C)[C@H](CC=C3[C@@H]4CC(C)(C)CC[C@]4(C(=O)OC)CC[C@]32C)[C@@]1(C)CC/C(N)=N/O
experimental_target: A549 NSCLC
class: inactive
--
molecule: O=c1cc(-c2ccccc2)oc2cc(OCc3cn(Cc4ccc(F)cc4)nn3)cc(O)c12
experimental_target: A549 NSCLC
class: inactive
--
molecule: N#C/C(=C/c1cccs1)c1cccs1
experimental_target: A549 NSCLC
class: inactive
--
molecule: CC(=O)O[C@H]1CC[C@]2(C)[C@H]3C(=O)C=C4[C@@H]5C[C@](C)(C(=O)N6CCCNCC6)CC[C@]5(C)CC[C@@]4(C)[C@]3(C)CC[C@H]2C1(C)C
experimental_target: A549 NSCLC
class: inactive
--
molecule: COc1cc2c3c(n(CCCn4cccn4)c(=O)c2cc1OC)-c1cc2c(cc1C3=O)OCO2
experimental_target: A549 NSCLC
class: inactive
--
molecule: CCCCCn1ncc(-c2c(O)c(O)cc3c(O)c(-c4c(C)cc5c(-c6cnn(CCCCC)n6)c(O)c(O)cc5c4O)c(C)cc23)n1
experimental_target: A549 NSCLC
class: active
--
molecule: CC(=O)OC1C(O)COC(Oc2c(C)c3c4c(c2O)[C@@H](C)CC[C@@H]4[C@@H](C)C[C@H]3C=C(C)C)C1O (some centres undefined)
experimental_target: A549 NSCLC
class: inactive
--
molecule: CO/N=C(\COc1ccc2c(=O)cc(-c3ccccc3)oc2c1)c1ccc(OC)cc1
experimental_target: A549 NSCLC
class: inactive
--
molecule: c1ccc(CN2CCC3(CC2)ONC2=NCCN23)cc1
experimental_target: A549 NSCLC
class: inactive

====

System: NCI/ADR-RES ovarian
Assay: NCI tumour cell line growth inhibition, 48 h

compound: CC(=O)OC1CC(C)c2c1ncnc2N1CCN(C(=O)OC(C)(C)C)CC1 (stereo unspecified)
GI50: 67.6 µM

compound: COc1ccc(-n2nc(C)c3c(Nc4ccc(NC(=O)Nc5cc(C(F)(F)F)ccc5F)cc4)ncnc32)cc1
GI50: 2.93 µM

compound: Cc1cc2cc(Oc3ccnc(Nc4cccc(CS(=O)(=O)NCCN(C)C)c4)n3)ccc2[nH]1
GI50: 17.9 µM

compound: CC(C)(C)c1ccc(NC(=O)c2cc(=O)c3ccccc3[nH]2)c(C(C)(C)C)c1O
GI50: 9.11 µM

compound: CCN(CCc1ccc(F)cc1)c1ccc(CO)c(Cl)c1
GI50: 11.8 µM

compound: CNC1=C(Br)C(=O)C2=C(C1=O)C1C3=C(C(=O)C=CC3=O)C2c2ccccc21 (stereo unspecified)
GI50: 4.68 µM

compound: Cc1cc(C)c(S(=O)(=O)Oc2ccccc2[N+](=O)[O-])c(C)c1
GI50: 1.01 µM

compound: Cn1c(-c2c(N)n(Cc3ccc(Cl)cc3)c3nc(C#N)c(C#N)nc23)nc2ccccc21
GI50: 2.36 µM

compound: O=C(Oc1ccccc1Cl)c1cccnc1Nc1ccnc(C(F)(F)F)c1
GI50: 16.5 µM

compound: COc1cc2c(C#N)n3c(c2cc1OC)C(=O)C(c1ccccc1)Oc1ccccc1-3 (stereo unspecified)
GI50: 3.05 µM

compound: CN1CCN(c2ccc(NC3=C(Cl)C(=O)c4ncccc4C3=O)cc2C(F)(F)F)CC1
GI50: 2.46 µM
